In this section, each of the variants is paired with its reported STK11 functional score.
B1: library; numbered along this chain (parent)
chain: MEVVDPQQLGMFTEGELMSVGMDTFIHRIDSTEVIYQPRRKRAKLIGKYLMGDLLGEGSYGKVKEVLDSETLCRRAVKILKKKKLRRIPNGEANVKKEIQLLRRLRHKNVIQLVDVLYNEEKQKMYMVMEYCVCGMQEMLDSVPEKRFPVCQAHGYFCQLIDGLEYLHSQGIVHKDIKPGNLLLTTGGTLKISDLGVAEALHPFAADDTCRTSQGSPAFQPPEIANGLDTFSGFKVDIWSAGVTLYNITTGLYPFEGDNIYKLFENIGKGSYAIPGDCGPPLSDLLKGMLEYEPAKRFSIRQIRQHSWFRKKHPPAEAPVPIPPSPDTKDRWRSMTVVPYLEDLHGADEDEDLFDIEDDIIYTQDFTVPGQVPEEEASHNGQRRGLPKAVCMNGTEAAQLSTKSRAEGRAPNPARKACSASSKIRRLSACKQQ

Variants of: B1
TEST_DETAILS: STK11 functional score (HeLa growth suppression), rescaled enrichment; synonymous median = 1, nonsense median = 0 (normalised score)
REPORTED_CONDITIONS: with HeLa; variant type: missense

- VARIANT_DESIGNATION: "N247V"
  STK11 functional score: 0.824
- VARIANT_DESIGNATION: "Y36C"
  STK11 functional score: 1.11
- VARIANT_DESIGNATION: "P221S"
  STK11 functional score: 1.07
- VARIANT_DESIGNATION: "E293D"
  STK11 functional score: 1.43
- VARIANT_DESIGNATION: "E265R"
  STK11 functional score: 1.41
- VARIANT_DESIGNATION: "E317A"
  STK11 functional score: 1.53
- VARIANT_DESIGNATION: "T212N"
  STK11 functional score: 0.481
- VARIANT_DESIGNATION: "P321L"
  STK11 functional score: 1.17
- VARIANT_DESIGNATION: "E121F"
  STK11 functional score: 0.824
- VARIANT_DESIGNATION: "G52I"
  STK11 functional score: 1.64
- VARIANT_DESIGNATION: "K84V"
  STK11 functional score: 0.24
- VARIANT_DESIGNATION: "P254W"
  STK11 functional score: 0.882
- VARIANT_DESIGNATION: "D277H"
  STK11 functional score: 1.36
- VARIANT_DESIGNATION: "Y60C"
  STK11 functional score: 0.482
- VARIANT_DESIGNATION: "Q305L"
  STK11 functional score: 1.6
- VARIANT_DESIGNATION: "I248D"
  STK11 functional score: 0.0228
- VARIANT_DESIGNATION: "R75G"
  STK11 functional score: 1.56
- VARIANT_DESIGNATION: "L182C"
  STK11 functional score: 1.17
- VARIANT_DESIGNATION: "P144Q"
  STK11 functional score: 1.25
- VARIANT_DESIGNATION: "Q170D"
  STK11 functional score: -0.0762
- VARIANT_DESIGNATION: "A420R"
  STK11 functional score: 1.51
- VARIANT_DESIGNATION: "S213I"
  STK11 functional score: 0.902
- VARIANT_DESIGNATION: "G56V"
  STK11 functional score: 0.273
- VARIANT_DESIGNATION: "H202F"
  STK11 functional score: 0.754
- VARIANT_DESIGNATION: "G233V"
  STK11 functional score: 0.47
- VARIANT_DESIGNATION: "H107F"
  STK11 functional score: 0.159
- VARIANT_DESIGNATION: "A318L"
  STK11 functional score: 1.58
- VARIANT_DESIGNATION: "L386F"
  STK11 functional score: 0.706
- VARIANT_DESIGNATION: "L80Q"
  STK11 functional score: 1.45
- VARIANT_DESIGNATION: "N412R"
  STK11 functional score: 1.57
- VARIANT_DESIGNATION: "E351R"
  STK11 functional score: 1.26
- VARIANT_DESIGNATION: "T363R"
  STK11 functional score: 1.14
- VARIANT_DESIGNATION: "D176Y"
  STK11 functional score: -0.343
- VARIANT_DESIGNATION: "M18A"
  STK11 functional score: 1.69
- VARIANT_DESIGNATION: "E92N"
  STK11 functional score: 1.39
- VARIANT_DESIGNATION: "L282F"
  STK11 functional score: 1.21
- VARIANT_DESIGNATION: "D365F"
  STK11 functional score: 0.997
- VARIANT_DESIGNATION: "L286W"
  STK11 functional score: 1.16
- VARIANT_DESIGNATION: "F255L"
  STK11 functional score: 0.5
- VARIANT_DESIGNATION: "G385T"
  STK11 functional score: 1.58
- VARIANT_DESIGNATION: "P369Q"
  STK11 functional score: 1.43
- VARIANT_DESIGNATION: "M18G"
  STK11 functional score: 1.36
- VARIANT_DESIGNATION: "E16S"
  STK11 functional score: 1.39
- VARIANT_DESIGNATION: "D352R"
  STK11 functional score: 1.61
- VARIANT_DESIGNATION: "Q214M"
  STK11 functional score: 1.66
- VARIANT_DESIGNATION: "S31Y"
  STK11 functional score: 1.36
- VARIANT_DESIGNATION: "T71A"
  STK11 functional score: 1.48
- VARIANT_DESIGNATION: "Q112Y"
  STK11 functional score: 1.01
- VARIANT_DESIGNATION: "N226A"
  STK11 functional score: 1.61
- VARIANT_DESIGNATION: "V66W"
  STK11 functional score: 0.62
- VARIANT_DESIGNATION: "R415D"
  STK11 functional score: 1.43
- VARIANT_DESIGNATION: "R301S"
  STK11 functional score: 1.49
- VARIANT_DESIGNATION: "E374F"
  STK11 functional score: 1.33
- VARIANT_DESIGNATION: "P294Q"
  STK11 functional score: 1.39
- VARIANT_DESIGNATION: "H27A"
  STK11 functional score: 1.19
- VARIANT_DESIGNATION: "K83V"
  STK11 functional score: 1.05
- VARIANT_DESIGNATION: "L9N"
  STK11 functional score: 1.67
- VARIANT_DESIGNATION: "M139D"
  STK11 functional score: -0.172
- VARIANT_DESIGNATION: "L160F"
  STK11 functional score: 0.36
- VARIANT_DESIGNATION: "D141L"
  STK11 functional score: 1.63
- VARIANT_DESIGNATION: "T395Q"
  STK11 functional score: 1.5
- VARIANT_DESIGNATION: "V133T"
  STK11 functional score: 1
- VARIANT_DESIGNATION: "L17I"
  STK11 functional score: 0.851
- VARIANT_DESIGNATION: "E291R"
  STK11 functional score: 1.53
- VARIANT_DESIGNATION: "S299T"
  STK11 functional score: 1.55
- VARIANT_DESIGNATION: "K83W"
  STK11 functional score: 1.53
- VARIANT_DESIGNATION: "R147S"
  STK11 functional score: 0.855
- VARIANT_DESIGNATION: "Y166I"
  STK11 functional score: 1.21
- VARIANT_DESIGNATION: "L290P"
  STK11 functional score: 0.264
- VARIANT_DESIGNATION: "P314F"
  STK11 functional score: 1.18
- VARIANT_DESIGNATION: "D115Y"
  STK11 functional score: 0.294
- VARIANT_DESIGNATION: "K81W"
  STK11 functional score: 0.565
- VARIANT_DESIGNATION: "Q399D"
  STK11 functional score: 1.39
- VARIANT_DESIGNATION: "F366G"
  STK11 functional score: 1.55
- VARIANT_DESIGNATION: "C278T"
  STK11 functional score: 1.22
- VARIANT_DESIGNATION: "H27P"
  STK11 functional score: 1.35
- VARIANT_DESIGNATION: "A273W"
  STK11 functional score: 1.65
- VARIANT_DESIGNATION: "P315N"
  STK11 functional score: 1.51
- VARIANT_DESIGNATION: "G385F"
  STK11 functional score: 1.36
- VARIANT_DESIGNATION: "Y166T"
  STK11 functional score: 1.11
- VARIANT_DESIGNATION: "A410P"
  STK11 functional score: 0.257
- VARIANT_DESIGNATION: "I224T"
  STK11 functional score: 0.252
- VARIANT_DESIGNATION: "C132T"
  STK11 functional score: 1.52
- VARIANT_DESIGNATION: "R86T"
  STK11 functional score: 1.69
- VARIANT_DESIGNATION: "S283R"
  STK11 functional score: 1.29

Where do the numbers come from? From the supplement of paper PMC12338614.
